- experimental-target: UniProt P9WHE9
- Type: biochemical
- run-parameters: recombinant M. tuberculosis LS; substrate 1 varied, 2 constant; pH 7.0
quantity: Kis (inhibitor dissociation constant, ES + I ⇌ ESI) (µM)
Expressed in µM, but write only the number.

1. O=c1[nH]c(C=Cc2ccccc2)c([N+](=O)[O-])c(=O)[nH]1 : 15

Req: Returns the measured Kis (inhibitor dissociation constant, ES + I ⇌ ESI) for the input molecule. Input: COc1ccc(/C=C/c2[nH]c(=O)[nH]c(=O)c2[N+](=O)[O-])cc1O
Resp: 74

Req: Returns the measured Kis (inhibitor dissociation constant, ES + I ⇌ ESI) for the input molecule. Input: O=c1[nH]c(/C=C/c2cccc(O)c2O)c([N+](=O)[O-])c(=O)[nH]1
Resp: 81

Req: Returns the measured Kis (inhibitor dissociation constant, ES + I ⇌ ESI) for the input molecule. Input: COc1cccc(/C=C/c2[nH]c(=O)[nH]c(=O)c2[N+](=O)[O-])c1OC
Resp: 22

Req: Returns the measured Kis (inhibitor dissociation constant, ES + I ⇌ ESI) for the input molecule. Input: O=c1[nH]c(/C=C/c2cccnc2)c([N+](=O)[O-])c(=O)[nH]1
Resp: 24

Req: Returns the measured Kis (inhibitor dissociation constant, ES + I ⇌ ESI) for the input molecule. Input: O=c1[nH]c(NCc2ccccc2O)c([N+](=O)[O-])c(=O)[nH]1
Resp: 904

Req: Returns the measured Kis (inhibitor dissociation constant, ES + I ⇌ ESI) for the input molecule. Input: O=c1[nH]c(/C=C/c2ccc(Br)cc2)c([N+](=O)[O-])c(=O)[nH]1
Resp: 234

Req: Returns the measured Kis (inhibitor dissociation constant, ES + I ⇌ ESI) for the input molecule. Input: O=c1[nH]c(/C=C/c2cccc([N+](=O)[O-])c2)c([N+](=O)[O-])c(=O)[nH]1
Resp: 173

----------
- experimental-target: S. pombe Lumazine Synthase (Schizosaccharomyces pombe, UniProt Q9UUB1)
- Sequence (Q9UUB1 1-159): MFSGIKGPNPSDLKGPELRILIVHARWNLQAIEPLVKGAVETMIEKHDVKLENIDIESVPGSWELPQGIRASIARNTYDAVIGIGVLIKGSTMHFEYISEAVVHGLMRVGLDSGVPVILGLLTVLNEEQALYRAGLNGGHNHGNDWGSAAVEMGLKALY
- procedure-text: Lumazine synthase kinetic inhibition assay
- Assay type: biochemical
- run-parameters: recombinant S. pombe LS; fit of the compound's data set; pH 7.0
We use 0.02 s⁻¹ as the dividing line for kcat (rate constant ES → E + P): on or above the line is met, below is not met.

Solved cases below.
1) O=c1[nH]c(/C=C/c2ccc([N+](=O)[O-])c(O)c2)c([N+](=O)[O-])c(=O)[nH]1 : not met
2) O=c1[nH]c(/C=C/C2C=Nc3ccccc32)c([N+](=O)[O-])c(=O)[nH]1 (centres unmarked) : met

Req: Does the reported kcat (rate constant ES → E + P) for O=c1[nH]c(/C=C/c2ccc(O)c([N+](=O)[O-])c2)c([N+](=O)[O-])c(=O)[nH]1 fall at or above the 0.02 s⁻¹ mark?
Resp: met

Req: Does the reported kcat (rate constant ES → E + P) for COc1cccc(/C=C/c2[nH]c(=O)[nH]c(=O)c2[N+](=O)[O-])c1OC fall at or above the 0.02 s⁻¹ mark?
Resp: met

----------
- experimental-target: S. pombe Lumazine Synthase (Schizosaccharomyces pombe, UniProt Q9UUB1)
- procedure-text: Lumazine synthase kinetic inhibition assay
- Format: biochemical
- run-parameters: recombinant S. pombe LS; substrate 1 varied, 2 constant; pH 7.0
Binarize Kis (inhibitor dissociation constant, ES + I ⇌ ESI) at 200 µM; below is 1, at or above is 0.

1) O=c1[nH]c(/C=C/c2cccc(O)c2O)c([N+](=O)[O-])c(=O)[nH]1 : 1
2) O=C(O)c1ccc(/C=C/c2[nH]c(=O)[nH]c(=O)c2[N+](=O)[O-])cc1 : 1
3) O=c1[nH]c(/C=C/c2cccc([N+](=O)[O-])c2)c([N+](=O)[O-])c(=O)[nH]1 : 0
4) COc1ccc([N+](=O)[O-])cc1/C=C/c1[nH]c(=O)[nH]c(=O)c1[N+](=O)[O-] : 0
5) O=C1OC(Cc2[nH]c(=O)[nH]c(=O)c2[N+](=O)[O-])c2ccccc21 (stereo not drawn) : 1

Req: Please determine if COc1ccccc1/C=C/c1[nH]c(=O)[nH]c(=O)c1[N+](=O)[O-] is below 200 µM in terms of Kis (inhibitor dissociation constant, ES + I ⇌ ESI).
Resp: 0

----------
- experimental-target: E. coli Riboflavin Synthase (Escherichia coli)
- procedure-text: Riboflavin synthase kinetic inhibition assay
- Type: biochemical
- run-parameters: recombinant E. coli RS; pH 7.0
quantity: Kis (inhibitor dissociation constant, ES + I ⇌ ESI) (µM)
Expressed in µM, but write only the number.

Below are worked cases with known answers.
1) O=c1[nH]c(/C=C/c2ccc([N+](=O)[O-])c(O)c2)c([N+](=O)[O-])c(=O)[nH]1 : 224
2) O=c1[nH]c(/C=C/C2C=Nc3ccccc32)c([N+](=O)[O-])c(=O)[nH]1 (stereo not drawn) : 426

Req: Entry O=c1[nH]c(/C=C/c2ccc3ccccc3c2)c([N+](=O)[O-])c(=O)[nH]1 , system E. coli Riboflavin Synthase (Escherichia coli): what Kis (inhibitor dissociation constant, ES + I ⇌ ESI) was measured?
Resp: 270

Req: Entry O=c1[nH]c(/C=C/c2cc(O)ccc2O)c([N+](=O)[O-])c(=O)[nH]1 , system E. coli Riboflavin Synthase (Escherichia coli): what Kis (inhibitor dissociation constant, ES + I ⇌ ESI) was measured?
Resp: 122

Req: Entry O=c1[nH]c(/C=C/c2ccc[nH]2)c([N+](=O)[O-])c(=O)[nH]1 , system E. coli Riboflavin Synthase (Escherichia coli): what Kis (inhibitor dissociation constant, ES + I ⇌ ESI) was measured?
Resp: 806

Req: Entry O=c1[nH]c(/C=C/c2cccc(O)c2O)c([N+](=O)[O-])c(=O)[nH]1 , system E. coli Riboflavin Synthase (Escherichia coli): what Kis (inhibitor dissociation constant, ES + I ⇌ ESI) was measured?
Resp: 26

----------
kcat (rate constant ES → E + P): recorded values
- experimental-target: M. tuberculosis Lumazine Synthase (Mycobacterium tuberculosis)
- Sequence (P9WHE9 whole entry): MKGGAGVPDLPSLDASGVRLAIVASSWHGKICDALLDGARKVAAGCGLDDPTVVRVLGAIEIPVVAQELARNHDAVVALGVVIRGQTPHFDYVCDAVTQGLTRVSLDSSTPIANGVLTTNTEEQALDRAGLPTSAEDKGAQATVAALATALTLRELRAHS
- Assay type: biochemical
- run-parameters: recombinant M. tuberculosis LS; fit of the compound's data set; pH 7.0
Expressed in s⁻¹, but write only the number.

Below are worked cases with known answers.
1. COc1cc(/C=C/c2[nH]c(=O)[nH]c(=O)c2[N+](=O)[O-])cc(OC)c1OC [Compound 24] : 0.0045
2. O=c1[nH]c(/C=C/C2C=Nc3ccccc32)c([N+](=O)[O-])c(=O)[nH]1 (stereo not shown) [Compound 44] : 0.00667
3. O=c1[nH]c(/C=C/c2cccc(O)c2O)c([N+](=O)[O-])c(=O)[nH]1 [Compound 17] : 0.006
4. O=c1[nH]c(NCc2ccccc2O)c([N+](=O)[O-])c(=O)[nH]1 [Compound 46] : 0.0103
5. O=c1[nH]c(/C=C/c2cc(O)ccc2O)c([N+](=O)[O-])c(=O)[nH]1 [Compound 18] : 0.00283
6. O=c1[nH]c(/C=C/c2ccccc2F)c([N+](=O)[O-])c(=O)[nH]1 [Compound 28] : 0.0045

Turning to the following compound.
Req: Returns the measured kcat (rate constant ES → E + P) for the input compound. Input: O=c1[nH]c(/C=C/c2ccc([N+](=O)[O-])cc2)c([N+](=O)[O-])c(=O)[nH]1 [Compound 26]
Resp: 0.0075

----------
- experimental-target: E. coli Riboflavin Synthase (Escherichia coli, UniProt P0AFU8)
- Sequence (P0AFU8 whole entry): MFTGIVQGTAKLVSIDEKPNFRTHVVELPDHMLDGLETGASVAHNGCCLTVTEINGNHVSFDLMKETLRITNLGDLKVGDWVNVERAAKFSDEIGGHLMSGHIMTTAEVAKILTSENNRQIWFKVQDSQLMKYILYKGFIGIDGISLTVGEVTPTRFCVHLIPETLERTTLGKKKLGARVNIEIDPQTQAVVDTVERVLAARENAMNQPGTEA
- procedure-text: Riboflavin synthase kinetic inhibition assay
- Type: biochemical
- run-parameters: recombinant E. coli RS
quantity: Mode of inhibition

Below are worked cases with known answers.
1. O=c1[nH]c(/C=C/C2C=Nc3ccccc32)c([N+](=O)[O-])c(=O)[nH]1 (stereo not drawn) [Compound 44] : Uncompetitive
2. O=c1[nH]c(/C=C/c2cc(O)ccc2O)c([N+](=O)[O-])c(=O)[nH]1 [Compound 18] : Uncompetitive
3. O=c1[nH]c(/C=C/c2ccc3ccccc3c2)c([N+](=O)[O-])c(=O)[nH]1 [Compound 43] : Uncompetitive
4. O=c1[nH]c(/C=C/c2cccc(O)c2O)c([N+](=O)[O-])c(=O)[nH]1 [Compound 17] : Mixed

Req: Returns the measured Mode of inhibition for the input molecule. Input: O=c1[nH]c(/C=C/c2ccc[nH]2)c([N+](=O)[O-])c(=O)[nH]1 [Compound 40]
Resp: Mixed

Req: Returns the measured Mode of inhibition for the input molecule. Input: O=c1[nH]c(/C=C/c2ccc([N+](=O)[O-])c(O)c2)c([N+](=O)[O-])c(=O)[nH]1 [Compound 35]
Resp: Uncompetitive

Source of measurements: paper PMC2760403
